Tested on: Mus musculus
Assay: Acute toxicity in ICR mouse assessed as apparent changes in any organ at 500 mg/kg, ip administered qd for 7 days
Assay type: organism-based
Design: dose 500 mg/kg, route intraperitoneal
Settings: in vivo, 168 h
Peptide text beside a SMILES is read from it. * marks the point of attachment. OBn = c1ccc(CO*)cc1

[
  {
    "molecule": "N[C@@H](Cc1c[nH]c2ccccc12)C(=O)N[C@@H](Cc1c[nH]c2ccccc12)C(=O)N[C@@H](Cc1ccccc1)C(=O)OCc1ccccc1 (H-Trp-Trp-Phe-OBn)",
    "Activity": "Non-toxic"
  },
  {
    "molecule": "CSCC[C@H](NC(=O)[C@H](Cc1c[nH]c2ccccc12)NC(=O)[C@@H](N)Cc1c[nH]c2ccccc12)C(=O)OCc1ccccc1 (H-Trp-Trp-Met-OBn)",
    "Activity": "Non-toxic"
  },
  {
    "molecule": "N[C@@H](Cc1c[nH]c2ccccc12)C(=O)N[C@@H](Cc1c[nH]c2ccccc12)C(=O)N[C@@H](CO)C(=O)OCc1ccccc1 (H-Trp-Trp-Ser-OBn)",
    "Activity": "Non-toxic"
  }
]

###

Test system: Mus musculus
Assay: Toxicity in ICR mouse xenografted with mouse S180 cells assessed as effect on brain weight at 8.9 umol/kg
Format: organism-based, CCRF S-180
Conditions: in vivo
Peptide text beside a SMILES is read from it. * marks the point of attachment. OBn = c1ccc(CO*)cc1
reported endpoint: Activity
Please report the result as a number followed by the unit.

Reference set, count: 3
[
  {
    "molecule": "CC(C)C[C@H](NC(=O)[C@H](Cc1c[nH]c2ccccc12)NC(=O)[C@@H](N)Cc1c[nH]c2ccccc12)C(=O)OCc1ccccc1 (H-Trp-Trp-Leu-OBn)",
    "tested target": "Mus musculus",
    "reported endpoint": "Activity",
    "experimental result": "0.26 g"
  },
  {
    "molecule": "N[C@@H](Cc1c[nH]c2ccccc12)C(=O)N[C@@H](Cc1c[nH]c2ccccc12)C(=O)N[C@@H](Cc1cnc[nH]1)C(=O)OCc1ccccc1 (H-Trp-Trp-His-OBn)",
    "tested target": "Mus musculus",
    "reported endpoint": "Activity",
    "experimental result": "0.28 g"
  },
  {
    "molecule": "NC(=O)C[C@H](NC(=O)[C@H](Cc1c[nH]c2ccccc12)NC(=O)[C@@H](N)Cc1c[nH]c2ccccc12)C(=O)OCc1ccccc1 (H-Trp-Trp-Asn-OBn)",
    "tested target": "Mus musculus",
    "reported endpoint": "Activity",
    "experimental result": "0.27 g"
  }
]

As a next step, examine the molecule that follows.
For this molecule ( C[C@H](NC(=O)[C@H](Cc1c[nH]c2ccccc12)NC(=O)[C@@H](N)Cc1c[nH]c2ccccc12)C(=O)OCc1ccccc1 (H-Trp-Trp-Ala-OBn) ), measured Activity is 0.27 g

###

Test system: Mus musculus
Assay: Acute toxicity in ICR mouse assessed as tetanus at 500 mg/kg, ip administered qd for 7 days
Format: organism-based
Set-up: dose 500 mg/kg, route intraperitoneal
Details: in vivo, 168 h
Peptide text beside a SMILES is read from it. * marks the point of attachment. OBn = c1ccc(CO*)cc1

[
  {
    "compound": "CC[C@H](C)[C@H](NC(=O)[C@H](Cc1c[nH]c2ccccc12)NC(=O)[C@@H](N)Cc1c[nH]c2ccccc12)C(=O)OCc1ccccc1 (H-Trp-Trp-Ile-OBn)",
    "tested target": "Mus musculus",
    "Activity": "Non-toxic"
  },
  {
    "compound": "N[C@@H](Cc1c[nH]c2ccccc12)C(=O)N[C@@H](Cc1c[nH]c2ccccc12)C(=O)N[C@@H](CCC(=O)O)C(=O)OCc1ccccc1 (H-Trp-Trp-Glu-OBn)",
    "tested target": "Mus musculus",
    "Activity": "Non-toxic"
  },
  {
    "compound": "N[C@@H](Cc1c[nH]c2ccccc12)C(=O)N[C@@H](Cc1c[nH]c2ccccc12)C(=O)NCC(=O)OCc1ccccc1 (H-Trp-Trp-Gly-OBn)",
    "tested target": "Mus musculus",
    "Activity": "Non-toxic"
  }
]

All figures here come from ChEMBL document CHEMBL1806449.
